# assay remarks: Solubility of crystalline Form 1 in organic solvents
# Format: physicochemical
# setup conditions: organic solvent or mixture; in acetone
measure: solubility

# input Entry [2H]C([2H])([2H])CC(=O)c1cnc(NC(=O)C2CC2)cc1Nc1cccc(-c2ncn(C([2H])([2H])[2H])n2)c1OC [Form 1] needs its solubility filled in; supply it.
# output < 3000 µg/mL

###

# assay remarks: Solubility of crystalline Form 1 in organic solvents
# Type: physicochemical
# setup conditions: organic solvent or mixture; in ethanol
measure: solubility

# input Entry [2H]C([2H])([2H])CC(=O)c1cnc(NC(=O)C2CC2)cc1Nc1cccc(-c2ncn(C([2H])([2H])[2H])n2)c1OC [Form 1] needs its solubility filled in; supply it.
# output < 1000 µg/mL

###

# assay remarks: Solubility of crystalline Form 1 in organic solvents
# Type: physicochemical
# setup conditions: organic solvent or mixture; in THF
measure: solubility

# input Entry [2H]C([2H])([2H])CC(=O)c1cnc(NC(=O)C2CC2)cc1Nc1cccc(-c2ncn(C([2H])([2H])[2H])n2)c1OC [Form 1] needs its solubility filled in; supply it.
# output < 17 mg/mL

###

# assay remarks: Solubility of crystalline Form 1 in organic solvents
# Assay type: physicochemical
# setup conditions: organic solvent or mixture; in isopropyl alcohol
measure: solubility

# input Entry [2H]C([2H])([2H])CC(=O)c1cnc(NC(=O)C2CC2)cc1Nc1cccc(-c2ncn(C([2H])([2H])[2H])n2)c1OC [Form 1] needs its solubility filled in; supply it.
# output < 1000 µg/mL
